Test system: High affinity choline transporter 1 (Homo sapiens), Q9GZV3 [L531A,V532A]
Experiment: Inhibition of human CHT […] mutant expressed in HEK293 cells assessed as remaining transporter activity at 5 uM in presence of 10 uM [3H]choline by [3H]choline uptake assay
Format: cell-based
Activity strictly under 30% means y; at 30% or over means n.

Hello, is Activity of the following molecule strictly smaller than 30%? COc1ccc(C(=O)NCCN2CCCC2)cc1OC1CCN(C(C)C)CC1
y

Try this molecule too: COc1ccc(C(=O)NCc2cc(C(C)C)no2)cc1OC(C)CN(C)C (stereo not given)
y

Try this molecule too: COc1ccc(C(=O)NCc2cc(C(C)C)no2)cc1OCCN1CCOCC1
n

Try this molecule too: COc1ccc(C(=O)NCc2cc(C(C)C)no2)cc1OC1CCCCC1
n

----------
Please provide measured Activity for the entries that follow.
Test system: High affinity choline transporter 1 (Homo sapiens), Q9GZV3 [L531A,V532A]
Sequence (whole entry): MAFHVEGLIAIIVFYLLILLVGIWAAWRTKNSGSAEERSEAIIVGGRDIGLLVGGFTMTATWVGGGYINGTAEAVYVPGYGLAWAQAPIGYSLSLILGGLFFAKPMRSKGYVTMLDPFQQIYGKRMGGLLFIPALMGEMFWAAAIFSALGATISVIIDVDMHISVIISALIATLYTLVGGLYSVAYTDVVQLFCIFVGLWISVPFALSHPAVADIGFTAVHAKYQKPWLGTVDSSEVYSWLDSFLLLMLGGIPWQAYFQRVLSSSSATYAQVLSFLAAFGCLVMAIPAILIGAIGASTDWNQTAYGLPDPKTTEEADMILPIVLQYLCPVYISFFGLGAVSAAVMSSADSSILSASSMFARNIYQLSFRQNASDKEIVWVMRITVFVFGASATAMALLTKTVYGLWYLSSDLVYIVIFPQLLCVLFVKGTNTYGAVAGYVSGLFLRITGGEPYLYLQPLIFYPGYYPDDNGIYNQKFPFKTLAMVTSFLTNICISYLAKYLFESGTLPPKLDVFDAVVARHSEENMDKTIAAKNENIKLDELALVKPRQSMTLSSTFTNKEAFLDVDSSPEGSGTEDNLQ
Assay: Inhibition of human CHT […] mutant expressed in HEK293 cells assessed as remaining transporter activity at 5 uM in presence of 100 nM [3H]choline by [3H]choline uptake assay
Format: cell-based
Write the numeric value and append its unit.

Consider the compound shown here: COc1ccc(C(=O)NCc2cc(C(C)C)no2)cc1OCCN1CCCC1 What is its recorded Activity?
50.1%

Try this compound too: COc1ccc(C(=O)NCc2nc(C)cs2)cc1OC1CCN(C(C)C)CC1
42.2%

Try this compound too: COc1ccc(C(=O)NCc2cc(C(C)C)no2)cc1OCCN1CCCCC1
38.3%

Try this compound too: COc1ccc(C(=O)NCc2ccc(C)s2)cc1OC1CCN(C(C)C)CC1
76.4%

Source of measurements: ChEMBL document CHEMBL3400059
